Molecular target: NLRP3 (Homo sapiens, UniProt Q96P20)
Sequence (Q96P20 whole entry): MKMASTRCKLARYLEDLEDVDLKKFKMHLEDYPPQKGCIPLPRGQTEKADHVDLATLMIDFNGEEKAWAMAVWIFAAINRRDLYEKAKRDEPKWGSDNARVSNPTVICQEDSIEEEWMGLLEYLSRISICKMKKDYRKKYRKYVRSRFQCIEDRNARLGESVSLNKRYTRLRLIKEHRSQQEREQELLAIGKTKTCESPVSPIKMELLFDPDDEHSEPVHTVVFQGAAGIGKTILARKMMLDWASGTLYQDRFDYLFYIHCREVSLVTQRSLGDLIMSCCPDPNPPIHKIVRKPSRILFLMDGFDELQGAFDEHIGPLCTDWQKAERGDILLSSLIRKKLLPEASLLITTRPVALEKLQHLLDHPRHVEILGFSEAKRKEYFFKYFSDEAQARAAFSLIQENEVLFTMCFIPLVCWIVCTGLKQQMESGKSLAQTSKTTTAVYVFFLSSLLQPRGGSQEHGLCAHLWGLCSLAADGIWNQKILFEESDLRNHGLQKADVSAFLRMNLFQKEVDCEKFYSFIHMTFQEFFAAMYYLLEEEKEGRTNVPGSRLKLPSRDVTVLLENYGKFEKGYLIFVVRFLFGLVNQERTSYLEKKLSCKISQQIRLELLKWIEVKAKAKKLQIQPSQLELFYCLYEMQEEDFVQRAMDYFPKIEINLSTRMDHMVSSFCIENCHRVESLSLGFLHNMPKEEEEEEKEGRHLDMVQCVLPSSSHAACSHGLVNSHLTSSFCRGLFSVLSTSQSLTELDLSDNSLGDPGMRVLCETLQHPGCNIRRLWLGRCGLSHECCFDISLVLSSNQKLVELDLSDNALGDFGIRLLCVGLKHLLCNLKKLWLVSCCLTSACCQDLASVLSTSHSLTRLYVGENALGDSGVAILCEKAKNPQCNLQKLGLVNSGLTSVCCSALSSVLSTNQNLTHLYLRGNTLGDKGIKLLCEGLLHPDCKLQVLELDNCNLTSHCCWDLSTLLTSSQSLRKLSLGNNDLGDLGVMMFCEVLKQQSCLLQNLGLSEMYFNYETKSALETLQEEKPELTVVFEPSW
Test: THP-1 cells pyroptosis assay (LPS + nigericin, resazurin readout)
Format: cell-based
Design: Seed THP-1 cells (25,000 cells/well) containing 1.0 μg/ml LPS in 40 μl of RPMI medium; host or cells: THP-1 cells
Conditions: NLRP3 inhibitory activity, 1.0 μg/ml LPS, 5 μM nigericin
Description: THP-1 cells (ATCC #TIB-202) were grown in RPMI containing L-glutamine (Gibco #11835) supplemented with 1 mM sodium pyruvate (Sigma #S8636) and penicillin (100 units/ml)/streptomycin (0.1 mg/ml) (Sigma #P4333) in 10% Fetal Bovine Serum (FBS) (Sigma #F0804). […] The cells were then counted and viability (>90%) checked by Trypan blue (Sigma #T8154). […] The following method step-by-step assay was followed for compound screening. • 1. […] Plates were read in an Envision reader at Ex 560 nm and Em 590 nm • 9. […]
Counter-ions that a name gives are not always drawn.
Quantity Name: IC50

## Input Sample CC(C)n1nc(S(=O)(=O)NC(=O)Nc2c3c(cc4c2CCC4)CCC3)cc1C1CCCN1C (stereo not shown) — what was its IC50?
## Output < 40 nM

## Input Same lookup for CC(C)c1cc(F)cc(C2CCOCC2)c1NC(=O)NS(=O)(=O)c1cc(C(=O)N(C)C)n(C)n1 [Example 126, Sodium Salt] , please.
## Output 640 to 2560 nM

## Input Same lookup for Cn1nc(S(=O)(=O)NC(=O)Nc2c3c(cc4c2CCC4)CCC3)cc1CN1CCCC1 [Example 78, Sodium Salt] , please.
## Output 40 to 160 nM

## Input Same lookup for COCCN(CCOC)C(=O)c1cc(S(=O)(=O)NC(=O)Nc2c(-c3ccnc(OC)c3)ccc3c2CCC3)nn1C [Example 175, Sodium Salt] , please.
## Output 160 to 640 nM

## Input Same lookup for COc1cc(-c2cc(F)cc(C(C)C)c2NC(=O)NS(=O)(=O)c2cc(CN(C)C)n(C(C)C)n2)ccn1 , please.
## Output 40 to 160 nM

## Input Same lookup for CC(c1cc(S(=O)(=O)NC(=O)Nc2c3c(cc4c2CCC4)CCC3)nn1C)N(C)C (stereo not shown) [Example 77] , please.
## Output < 40 nM

## Input Same lookup for CCn1nc(S(=O)(=O)NC(=O)Nc2c3c(cc4c2CCC4)CCC3)cc1CN1CCC1 , please.
## Output 40 to 160 nM

## Input Same lookup for CN(CCO)Cc1cc(S(=O)(=O)NC(=O)Nc2c3c(cc4c2CCC4)CCC3)nn1C , please.
## Output 40 to 160 nM

## Input Same lookup for CC(C)c1cc(F)cc(-c2cncnc2)c1NC(=O)NS(=O)(=O)c1cc(CN(C)C)n(C(C)C)n1 , please.
## Output 640 to 2560 nM

## Input Same lookup for CC(c1cc(S(=O)(=O)NC(=O)Nc2c3c(cc4c2CCC4)CCC3)nn1C1CC1)N(C)C (stereo not shown) , please.
## Output < 40 nM

## Input Same lookup for CC(C)c1cc(F)cc(C(C)C)c1NC(=O)NS(=O)(=O)c1cc(CN(C)C)n(C(C)C)n1 , please.
## Output 160 to 640 nM

## Input Same lookup for Cn1nc(S(=O)(=O)NC(=O)Nc2c3c(cc4c2CCC4)CCC3)cc1CN1CCOCC1 , please.
## Output 640 to 2560 nM

## Input Same lookup for CC(C)c1cc(F)cc(-c2ccccc2)c1NC(=O)NS(=O)(=O)c1cc(CN(C)C)n(C)n1 , please.
## Output 160 to 640 nM

## Input Same lookup for CN(C)Cc1nc(S(=O)(=O)NC(=O)Nc2c3c(cc4c2CCC4)CCC3)cn1C , please.
## Output 2560 to 10000 nM

---

Assay: PK protocol, intravenous administration
Format: in vivo, male Sprague Dawley rats
Settings: male, Sprague Dawley, rat, plasma, dose (mg/kg), read-out: Vdss
Structures can show the parent of a compound that is named as a salt.
Quantity Name: Vd (L/kg)

Look over these answered cases.
{"Compound": "CCn1nc(S(=O)(=O)NC(=O)Nc2c3c(cc4c2CCC4)CCC3)cc1CN(C)C [Example 52]", "Scale Unit": "L/kg", "Vd": 0.39}
{"Compound": "CCN(C)Cc1cc(S(=O)(=O)NC(=O)Nc2c(C(C)C)cc(F)cc2C(C)C)nn1C [Example 89, sodium Salt]", "Scale Unit": "L/kg", "Vd": 1.4}
{"Compound": "O=C(Nc1c2c(cc3c1CCC3)CCC2)NS(=O)(=O)c1cc(CN2CCC2)n(C2CC2)n1 [Example 30]", "Scale Unit": "L/kg", "Vd": 0.53}
{"Compound": "CN(C)CCn1nc(S(=O)(=O)NC(=O)Nc2c3c(cc4c2CCC4)CCC3)cc1CN(C)C [Example 3]", "Scale Unit": "L/kg", "Vd": 1.32}
{"Compound": "CNCc1cc(S(=O)(=O)NC(=O)Nc2c3c(cc4c2CCC4)CCC3)nn1C(C)C [Example 50]", "Scale Unit": "L/kg", "Vd": 0.39}
{"Compound": "CC(c1cc(S(=O)(=O)NC(=O)Nc2c3c(cc4c2CCC4)CCC3)nn1C)N1CCC1 (stereo not drawn) [Example 76]", "Scale Unit": "L/kg", "Vd": 0.66}

1. CN(C)CCn1nc(S(=O)(=O)NC(=O)Nc2c3c(cc4c2CCC4)CCC3)cc1C(C)(C)O [Example 4]
2. CN(C)Cc1cc(S(=O)(=O)NC(=O)Nc2c3c(cc4c2CCC4)CCC3)nn1C [Example 94]
## Input For the pair 1 and 2 , which member has the lower Vd number? Please identify the chosen entry by its label.
## Output 1

---

Biological target: NLRP3 (Homo sapiens)
Assay: THP-1 cells pyroptosis assay (LPS + nigericin, resazurin readout)
Format: cell-based
Set-up: Seed THP-1 cells (25,000 cells/well) containing 1.0 μg/ml LPS in 40 μl of RPMI medium; host or cells: THP-1 cells
Conditions: NLRP3 inhibitory activity, 1.0 μg/ml LPS, 5 μM nigericin
Quantity Name: IC50

{"Molecule": "CC(c1cc(S(=O)(=O)NC(=O)Nc2c3c(cc4c2CCC4)CCC3)nn1C)N(C)C (single isomer, unassigned; enantiomer 1) [Example 69]", "IC50": "< 40 nM"}
{"Molecule": "CCn1nc(S(=O)(=O)NC(=O)Nc2c3c(cc4c2CCO4)CCC3)cc1CN(C)C", "IC50": "< 40 nM"}
{"Molecule": "CC(C)n1nc(S(=O)(=O)[N-]C(=O)Nc2c3c(cc4c2CCC4)CCC3)cc1C(C)[N+](C)(C)C (centres unmarked)", "IC50": "640 to 2560 nM"}
{"Molecule": "CCn1nc(S(=O)(=O)NC(=O)Nc2c(-c3cccc(C#N)c3)ccc3c2CCC3)cc1CN(C)C", "IC50": "40 to 160 nM"}

For the next question, use this molecule.
## Input Sample CC(C)c1cc(F)cc(-c2cncnc2)c1NC(=O)NS(=O)(=O)c1cc(CN(C)C)n(C)n1 — what was its IC50?
## Output 640 to 2560 nM

---

Target: NLRP3 (Homo sapiens)
Assay: THP-1 cells pyroptosis assay (LPS + nigericin, resazurin readout)
Type: cell-based
Parameters: Seed THP-1 cells (25,000 cells/well) containing 1.0 μg/ml LPS in 40 μl of RPMI medium; host or cells: THP-1 cells
Conditions: NLRP3 inhibitory activity, 1.0 μg/ml LPS, 5 μM nigericin
Structures can show the parent of a compound that is named as a salt.
Quantity Name: IC50

Look over these answered cases.
{"Compound": "CC(C)c1cc(F)cc(-c2cccc(C#N)c2)c1NC(=O)NS(=O)(=O)c1cc(CN(C)C)n(C)n1", "Study System": "NLRP3 (Homo sapiens)", "IC50": "0.04 to 0.16 µM"}
{"Compound": "CCC(c1cc(S(=O)(=O)NC(=O)Nc2c(C(C)C)cc(F)cc2C(C)C)nn1C)N(C)C (centres unmarked)", "Study System": "NLRP3 (Homo sapiens)", "IC50": "< 0.04 µM"}
{"Compound": "CC(C)c1cc(F)cc(C(C)C)c1NC(=O)NS(=O)(=O)c1cc(CN(C)C)n(C)n1 [Example 92, Sodium Salt]", "Study System": "NLRP3 (Homo sapiens)", "IC50": "0.16 to 0.64 µM"}
{"Compound": "CC(C)c1cc(Cl)cc(C(C)C)c1NC(=O)NS(=O)(=O)c1cc(CN(C)C)n(C)n1 [Example 93, Sodium Salt]", "Study System": "NLRP3 (Homo sapiens)", "IC50": "0.04 to 0.16 µM"}
{"Compound": "CN(C)C1(c2cc(S(=O)(=O)NC(=O)Nc3c4c(cc5c3CCC5)CCC4)nn2C)COC1", "Study System": "NLRP3 (Homo sapiens)", "IC50": "0.16 to 0.64 µM"}
{"Compound": "COc1cc(-c2ccc3c(c2NC(=O)NS(=O)(=O)c2cc(CN(C)C)n(C(C)C)n2)CCC3)ccn1", "Study System": "NLRP3 (Homo sapiens)", "IC50": "< 0.04 µM"}
{"Compound": "CN(C)Cc1cc(S(=O)(=O)NC(=O)Nc2c3c(cc4c2CCC4)CCC3)nn1C1CC1", "Study System": "NLRP3 (Homo sapiens)", "IC50": "< 0.04 µM"}

For the next question, use this compound.
## Input Sample CC(C)N(C)Cc1cc(S(=O)(=O)NC(=O)Nc2c3c(cc4c2CCC4)CCC3)nn1C — what was its IC50?
## Output 0.16 to 0.64 µM
